# assay_procedure: Solubility studies: 0.1 g marker candidate in 0.9 g solvent, solution stability at 60 C, room temperature and -10 C
# Type: physicochemical
# condition_details: 75:25 Aromatic 200H: cyclohexanone
measured_endpoint: SOLUBILITY BEHAVIOR −10 C.

1) CCCCCCCCCCCCOc1ccc(C(c2ccccc2)(c2ccccc2)c2ccccc2)cc1C(C)(C)C :: sol 7D sol 7D
2) CCCCCCCCCCCCOc1c(C(C)CC)cc(C(c2ccccc2)(c2ccccc2)c2ccccc2)cc1C(C)CC (stereo not drawn) :: sol 7D sol 7D
3) CCCCCCCCCCCCOc1c(C(C)(C)C)cc(C(c2ccccc2)(c2ccccc2)c2ccccc2)cc1C(C)(C)C :: sol 7D sol 7D

---

# assay_procedure: Solubility studies: 0.1 g marker candidate in 0.9 g solvent, solution stability at 60 C, room temperature and -10 C
# Format: physicochemical
# condition_details: 75:25 Aromatic 200H: o-sec-butylphenol
measured_endpoint: SOLUBILITY BEHAVIOR −10 C.

1. CCCCCCCCCCCCOc1c(C(C)(C)C)cc(C(c2ccccc2)(c2ccccc2)c2ccccc2)cc1C(C)(C)C :: sol 7D sol 7D
2. CCCCCCCCCCCCOc1ccc(C(c2ccccc2)(c2ccccc2)c2ccccc2)cc1C(C)(C)C :: sol 7D sol 7D
3. CCCCCCCCCCCCOc1c(C(C)CC)cc(C(c2ccccc2)(c2ccccc2)c2ccccc2)cc1C(C)CC (centres unmarked) :: sol 7D sol 7D
